Reported Rm values for a set of compounds
RUN_DESCRIPTION: Lipophilicity (Rm)
Assay type: physicochemical
APPLIED_CONDITIONS: AMSA internal standard

| MOLECULE | Rm |
| --- | --- |
| Cc1cccc2c1Oc1cccc(C(=O)NCCN(C)C)c1O2 | 0.14 |
| COc1cccc2c1Oc1c(cccc1C(=O)NCCN(C)C)O2 | -0.02 |
| CN(C)CCNC(=O)c1ccc2c(c1)Oc1ccc(C(=O)NCCN(C)C)cc1O2 | -1.21 |
| CN(C)CCNC(=O)c1ccc2c(c1)Oc1ccccc1O2 | 0.11 |
| Cc1cccc2c1Oc1c(cccc1C(=O)NCCN(C)C)O2 | 0.09 |
| CN(C)CCCCNC(=O)c1cccc2c1Oc1ccccc1O2 | 0.13 |
| CN(C)CCNC(=O)c1cccc2c1Oc1cc([N+](=O)[O-])ccc1O2 | -0.14 |
| CN(C)CCNC(=O)c1cc([N+](=O)[O-])cc2c1Oc1ccccc1O2 | -0.16 |
| COc1cccc2c1Oc1cccc(C(=O)NCCN(C)C)c1O2 | -0.19 |
| CN(C)CCNC(=O)c1cccc2c1Oc1c(cccc1C(=O)NCCN(C)C)O2 | -0.68 |
| Cc1ccc2c(c1)Oc1cccc(C(=O)NCCN(C)C)c1O2 | 0.2 |
| CN(C)CCNC(=O)c1cccc2c1Oc1ccc(Br)cc1O2 | 0.18 |
| CN(C)CCNC(=O)c1cccc2c1Oc1ccc(Cl)cc1O2 | 0.1 |
| CN(C)CCNC(=O)c1cccc2c1Oc1c(Cl)cccc1O2 | -0.01 |
| CN(C)CCNC(=O)c1cccc2c1Oc1ccccc1O2 | 0.01 |
| CN(C)CCNC(=O)c1cccc2c1Oc1cccc(Cl)c1O2 | 0.21 |
| CN(C)CCNC(=O)c1cccc2c1Oc1ccc([N+](=O)[O-])cc1O2 | -0.14 |
| CN(C)CCNC(=O)c1cccc2c1Oc1cc(Cl)c(Cl)cc1O2 | 0.25 |
| CN(C)CCNC(=O)c1cccc2c1Oc1cccc([N+](=O)[O-])c1O2 | -0.2 |
| CN(C)CCNC(=O)c1cccc2c1Oc1c(cccc1[N+](=O)[O-])O2 | -0.28 |
| CN(C)CCNC(=O)c1cccc2c1Oc1ncccc1O2 | -0.38 |
| CN(C)CCNC(=O)c1cccc2c1Oc1c(Br)cccc1O2 | -0.01 |
| CN(C)CCNC(=O)c1cccc2c1Oc1cc(Br)ccc1O2 | 0.18 |
| CN(C)CCNC(=O)c1cccc2c1Oc1cccnc1O2 | -0.49 |

====

System: Nucleic Acid
RUN_DESCRIPTION: Binding constant to poly[d(A-T)] by displacement of ethidium bromide
Assay type: nucleic-acid assay

| MOLECULE | Log K |
| --- | --- |
| CN(C)CCNC(=O)c1cccc2c1Oc1ccc(Br)cc1O2 | 5.34 |
| CN(C)CCNC(=O)c1cccc2c1Oc1ccc(Cl)cc1O2 | 5.11 |
| CN(C)CCCCNC(=O)c1cccc2c1Oc1ccccc1O2 | 4.9 |
| CN(C)CCNC(=O)c1cccc2c1Oc1cccnc1O2 | 4.73 |
| CN(C)CCNC(=O)c1cccc2c1Oc1c(cccc1C(=O)NCCN(C)C)O2 | 4.48 |
| Cc1cccc2c1Oc1cccc(C(=O)NCCN(C)C)c1O2 | 5.26 |
| CN(C)CCNC(=O)c1cccc2c1Oc1cccc([N+](=O)[O-])c1O2 | 5.06 |
| COc1cccc2c1Oc1cccc(C(=O)NCCN(C)C)c1O2 | 5.18 |
| CN(C)CCNC(=O)c1cccc2c1Oc1c(cccc1[N+](=O)[O-])O2 | 5.11 |
| CN(C)CCNC(=O)c1cccc2c1Oc1c(Br)cccc1O2 | 5.23 |
| CN(C)CCNC(=O)c1cccc2c1Oc1cccc(Cl)c1O2 | 5.15 |
